target: HLA-B*58:01; assay: IEDB peptide-MHC binding, purified MHC/direct/fluorescence; filed as Kd, often an IC50 or EC50 that approximates it; bounds were set here for any values at or beyond the usual limits of such assays; details: source organism: Influenza A virus (A/Viet Nam/HN/2004(H5N1))
pKd: −log10 of the molar value.

{"biopolymer-sequence": "ERNEQGQTL", "measurement-target": "HLA-B*58:01", "pKd": "≤ 4.70"}

====

molecular target: HLA-A*02:01; assay: IEDB peptide-MHC binding, purified MHC/competitive/fluorescence; filed as Kd, often an IC50 or EC50 that approximates it; bounds were set here for any values at or beyond the usual limits of such assays; conditions: source organism: Orthohantavirus puumalaense
pKd: −log10 of the molar value.
measurement-label: pKd

{"biopolymer-sequence": "LRYGNVLDV", "result": "≤ 4.70"}

====

molecular target: HLA-B*44:02; test: IEDB peptide-MHC binding, purified MHC/competitive/radioactivity; filed as Kd, often an IC50 or EC50 that approximates it; bounds were set here for any values at or beyond the usual limits of such assays; settings: source organism: Dengue virus 1 Brazil/97-11/1997
Measured Kd, listed per entry for reference.
measurement-label: Kd (nM)

{"biopolymer-sequence": "SQILLMRTTW", "number": 359}
{"biopolymer-sequence": "VDLHPASAW", "number": 80.2}
{"biopolymer-sequence": "SLEKAAEVSW", "number": 174}

====

biological target: HLA-A*32:01; experiment: IEDB peptide-MHC binding, purified MHC/competitive/radioactivity; filed as Kd, often an IC50 or EC50 that approximates it; bounds were set here for any values at or beyond the usual limits of such assays; settings: source organism: Vaccinia virus WR
pKd: −log10 of the molar value.

{"biopolymer-sequence": "YMMNIYLNF", "pKd": 8.53}
{"biopolymer-sequence": "KTINALVYF", "pKd": 8.06}
{"biopolymer-sequence": "KQNMLHVII", "pKd": 8.67}
{"biopolymer-sequence": "ITVYFRRTI", "pKd": 7.59}
{"biopolymer-sequence": "LFLDIECHF", "pKd": 5.46}
{"biopolymer-sequence": "ILPVIFLSI", "pKd": 8.35}
{"biopolymer-sequence": "LTNEIYASI", "pKd": 7.89}
{"biopolymer-sequence": "IIFFIVLIL", "pKd": 7.91}
{"biopolymer-sequence": "SQIITLTAF", "pKd": 5.92}
{"biopolymer-sequence": "KLYTIVSTL", "pKd": 8.15}
{"biopolymer-sequence": "MTMILFLKL", "pKd": 6.61}
{"biopolymer-sequence": "LMTMNIVNF", "pKd": 5.19}
{"biopolymer-sequence": "ITLFLILCY", "pKd": 5.74}
{"biopolymer-sequence": "MTNGKINSL", "pKd": 7.65}

====

target: HLA-B*58:01; assay: IEDB peptide-MHC binding, purified MHC/direct/fluorescence; filed as Kd, often an IC50 or EC50 that approximates it; bounds were set here for any values at or beyond the usual limits of such assays; settings: source organism: Pseudomonas aeruginosa UCBPP-PA14
measurement-label: Kd

{"biopolymer-sequence": "SPADERAVA", "result": "≥ 20 µM"}

====

biological target: HLA-B*51:01; assay: IEDB peptide-MHC binding, purified MHC/competitive/fluorescence; filed as Kd, often an IC50 or EC50 that approximates it; bounds were set here for any values at or beyond the usual limits of such assays; conditions: source organism: Entamoeba histolytica HM-1:IMSS
pKd: −log10 of the molar value.

{"biopolymer-sequence": "KVSVGSYFC", "pKd": "≤ 4.70"}

====

target: HLA-A*24:02; test: IEDB peptide-MHC binding, purified MHC/competitive/radioactivity; filed as Kd, often an IC50 or EC50 that approximates it; bounds were set here for any values at or beyond the usual limits of such assays; settings: source organism: Homo sapiens
pKd: −log10 of the molar value.
measurement-label: pKd

{"biopolymer-sequence": "VAELVHFLL", "measurement-target": "HLA-A*24:02", "number": 6.83}

====

biological target: HLA-B*15:01; assay: IEDB peptide-MHC binding, purified MHC/competitive/fluorescence; filed as Kd, often an IC50 or EC50 that approximates it; bounds were set here for any values at or beyond the usual limits of such assays; conditions: source organism: Escherichia coli F11
pKd: −log10 of the molar value.
measurement-label: pKd

{"biopolymer-sequence": "YTLNNGGAF", "measurement-label": "pKd", "number": 7.23}

====

molecular target: HLA-B*44:02; experiment: IEDB peptide-MHC binding, purified MHC/competitive/radioactivity; filed as Kd, often an IC50 or EC50 that approximates it; bounds were set here for any values at or beyond the usual limits of such assays; details: source organism: Dengue virus 2 Jamaica/1409/1983
Field: label. Allowed values: t (Kd < 80 nM) or f (Kd >= 80 nM).

{"biopolymer-sequence": "NEMVLLQME", "classification": "f"}
{"biopolymer-sequence": "HEEPIPMSTY", "classification": "f"}
{"biopolymer-sequence": "NEAIMAVGM", "classification": "f"}
{"biopolymer-sequence": "AEISGSSPIL", "classification": "t"}
{"biopolymer-sequence": "SENEVKLTIM", "classification": "t"}

====

biological target: HLA-B*51:01; assay: IEDB peptide-MHC binding, purified MHC/direct/fluorescence; filed as Kd, often an IC50 or EC50 that approximates it; bounds were set here for any values at or beyond the usual limits of such assays; conditions: source organism: Mycobacterium tuberculosis str. Haarlem
pKd: −log10 of the molar value.

{"biopolymer-sequence": "LPVEYLQVP", "pKd": "≤ 4.70"}

====

target: HLA-B*15:01; experiment: IEDB peptide-MHC binding, purified MHC/competitive/fluorescence; filed as Kd, often an IC50 or EC50 that approximates it; bounds were set here for any values at or beyond the usual limits of such assays; conditions: source organism: Vibrio antiquarius

{"biopolymer-sequence": "FAMTVPLLI", "Kd": "≥ 20 µM"}

====

molecular target: HLA-A*26:02; experiment: IEDB peptide-MHC binding, purified MHC/competitive/fluorescence; filed as Kd, often an IC50 or EC50 that approximates it; bounds were set here for any values at or beyond the usual limits of such assays; settings: source organism: Homo sapiens
pKd: −log10 of the molar value.

{"biopolymer-sequence": "FRHSVVVPY", "measurement-target": "HLA-A*26:02", "pKd": "≤ 4.70"}

====

molecular target: HLA-A*02:01; assay: IEDB peptide-MHC binding, purified MHC/direct/fluorescence; filed as Kd, often an IC50 or EC50 that approximates it; bounds were set here for any values at or beyond the usual limits of such assays; settings: source organism: Mycobacterium tuberculosis
pKd: −log10 of the molar value.
measurement-label: pKd

{"biopolymer-sequence": "ALLDLGWTI", "measurement-target": "HLA-A*02:01", "measurement-label": "pKd", "operator-symbol": "=", "number": 9.05}
{"biopolymer-sequence": "SPREECGVF", "measurement-target": "HLA-A*02:01", "measurement-label": "pKd", "operator-symbol": "≤", "number": 4.70}
{"biopolymer-sequence": "ALAAATPMV", "measurement-target": "HLA-A*02:01", "measurement-label": "pKd", "operator-symbol": "=", "number": 8.28}

====

biological target: HLA-A*29:02; assay: IEDB peptide-MHC binding, purified MHC/direct/fluorescence; filed as Kd, often an IC50 or EC50 that approximates it; bounds were set here for any values at or beyond the usual limits of such assays; conditions: source organism: Choclo virus
measurement-label: Kd

{"biopolymer-sequence": "LRYGNVLDV", "result": "≥ 20 µM"}

====

target: HLA-C*04:01; assay: IEDB peptide-MHC binding, purified MHC/competitive/fluorescence; filed as Kd, often an IC50 or EC50 that approximates it; bounds were set here for any values at or beyond the usual limits of such assays; details: source organism: Mycobacterium tuberculosis variant bovis BCG str. Pasteur 1173P2

{"biopolymer-sequence": "MAAVRTTAL", "Kd": "≥ 20 µM"}

====

molecular target: HLA-B*40:01; assay: IEDB peptide-MHC binding, purified MHC/direct/fluorescence; filed as Kd, often an IC50 or EC50 that approximates it; bounds were set here for any values at or beyond the usual limits of such assays; details: source organism: Mycobacterium tuberculosis variant bovis

{"biopolymer-sequence": "GEPDARYEI", "uom": "nM", "Kd": 70.2}

====

target: HLA-A*02:01; assay: IEDB peptide-MHC binding, purified MHC/competitive/radioactivity; filed as Kd, often an IC50 or EC50 that approximates it; bounds were set here for any values at or beyond the usual limits of such assays; details: source organism: Lassa virus Josiah
pKd: −log10 of the molar value.
Listing of recorded pKd by entry.

{"biopolymer-sequence": "IALSVLAVL", "measurement-target": "HLA-A*02:01", "pKd": 5.72}
{"biopolymer-sequence": "LTYSQLMTL", "measurement-target": "HLA-A*02:01", "pKd": 6.64}
